Below: a set of entries, each annotated with reported SI CA I/IV.
# study_system: hCA IV (Homo sapiens, UniProt P22748)
# Sequence (P22748 19-312): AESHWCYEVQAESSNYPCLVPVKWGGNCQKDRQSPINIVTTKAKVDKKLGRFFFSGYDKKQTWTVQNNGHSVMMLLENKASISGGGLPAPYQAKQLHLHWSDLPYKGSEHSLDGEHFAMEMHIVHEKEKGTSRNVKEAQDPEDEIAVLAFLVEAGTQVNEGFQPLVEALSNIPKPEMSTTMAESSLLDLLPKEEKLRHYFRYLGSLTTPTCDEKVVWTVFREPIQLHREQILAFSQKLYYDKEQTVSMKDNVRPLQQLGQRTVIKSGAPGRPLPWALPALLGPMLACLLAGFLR
# method_description: Stopped-flow CO2 hydrase assay, hCA IV
# condition_summary: selectivity index, ratio of KIs
Answer with a bare number; do not write a unit.

# count of solved cases: 5
molecule | value
NS(=O)(=O)c1ccc(CCN(CCc2ccccc2)C(=O)c2ccc(-c3cssc3=S)cc2)cc1 [Compound 32] | 18.0
N#CCCN(CCc1ccc(S(N)(=O)=O)cc1)C(=O)c1ccc(-c2cssc2=S)cc1 [Compound 33] | 0.8
NS(=O)(=O)c1ccc(CCNCc2ccc([N+](=O)[O-])cc2)cc1 [Compound 10] | 0.1
NS(=O)(=O)c1ccc(CCNCc2ccc(F)cc2)cc1 [Compound 5] | 0.09
COc1ccc(CN(CCc2ccc(S(N)(=O)=O)cc2)C(=O)c2ccc(-c3cssc3=S)cc2)cc1OC [Compound 28] | 3.0

Please give measured SI CA I/IV of the following entry: NS(=O)(=O)c1ccc(CCNCc2csc3ccccc23)cc1 [Compound 16]
0.05

Please give measured SI CA I/IV of the following entry: NS(=O)(=O)c1ccc(CCNCc2ccc(Cl)cc2)cc1 [Compound 6]
0.04

Please give measured SI CA I/IV of the following entry: COc1cc([N+](=O)[O-])ccc1CN(CCc1ccc(S(N)(=O)=O)cc1)C(=O)c1ccc(-c2cssc2=S)cc1 [Compound 26]
1.6

Please give measured SI CA I/IV of the following entry: NS(=O)(=O)c1ccc(CCN(Cc2ccc(Br)cc2)C(=O)c2ccc(-c3cssc3=S)cc2)cc1 [Compound 22]
7.4

Please give measured SI CA I/IV of the following entry: COc1ccc(CN(CCc2ccc(S(N)(=O)=O)cc2)C(=O)c2ccc(-c3cssc3=S)cc2)cc1 [Compound 27]
1.4

Please give measured SI CA I/IV of the following entry: CSc1ccc(CN(CCc2ccc(S(N)(=O)=O)cc2)C(=O)c2ccc(-c3cssc3=S)cc2)cc1 [Compound 29]
17.9

----------
# study_system: hCA IV (Homo sapiens)
# method_description: Stopped-flow CO2 hydrase assay, hCA IV
# condition_summary: selectivity index, ratio of KIs
Below: a set of entries, each annotated with reported SI CA II/IV.
Answer with a bare number; do not write a unit.

# count of solved cases: 7
chemical_smiles | study_system | SI CA II/IV
NS(=O)(=O)c1ccc(CCNCc2ccc(F)cc2)cc1 | hCA IV (Homo sapiens) | 0.06
COc1ccc(CNCCc2ccc(S(N)(=O)=O)cc2)cc1OC | hCA IV (Homo sapiens) | 0.07
NS(=O)(=O)c1ccc(CCN(CCc2ccccc2)C(=O)c2ccc(-c3cssc3=S)cc2)cc1 | hCA IV (Homo sapiens) | 2.7
NS(=O)(=O)c1ccc(CCNCCc2ccccc2)cc1 | hCA IV (Homo sapiens) | 0.02
NS(=O)(=O)c1ccc(CCN(Cc2cccc3ccccc23)C(=O)c2ccc(-c3cssc3=S)cc2)cc1 | hCA IV (Homo sapiens) | 18.3
NS(=O)(=O)c1ccc(CCN(Cc2ccc(Cl)cc2)C(=O)c2ccc(-c3cssc3=S)cc2)cc1 | hCA IV (Homo sapiens) | 6.9
NS(=O)(=O)c1ccc(CCNCc2cccc3ccccc23)cc1 | hCA IV (Homo sapiens) | 0.06

Let's switch to this compound now.
Please give measured SI CA II/IV of the following entry: NS(=O)(=O)c1ccc(CCN(Cc2ccccc2)C(=O)c2ccc(-c3cssc3=S)cc2)cc1
0.11

----------
# study_system: hCA XII (Homo sapiens, UniProt O43570)
# Sequence (O43570 25-354): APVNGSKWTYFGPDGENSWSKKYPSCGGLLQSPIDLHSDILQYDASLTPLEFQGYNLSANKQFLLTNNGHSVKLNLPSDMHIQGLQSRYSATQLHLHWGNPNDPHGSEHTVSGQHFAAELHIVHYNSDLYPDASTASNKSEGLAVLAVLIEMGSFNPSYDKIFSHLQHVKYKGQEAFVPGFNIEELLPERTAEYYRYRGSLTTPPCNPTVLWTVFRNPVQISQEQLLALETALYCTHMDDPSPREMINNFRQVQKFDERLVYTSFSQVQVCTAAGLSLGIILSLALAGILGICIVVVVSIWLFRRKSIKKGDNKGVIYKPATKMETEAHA
# method_description: Stopped-flow CO2 hydrase assay, hCA XII
# condition_summary: selectivity index, ratio of KIs
Below: a set of entries, each annotated with reported SI CA II/XII.
Answer with a bare number; do not write a unit.

compound | study_system | SI CA II/XII
CSc1ccc(CN(CCc2ccc(S(N)(=O)=O)cc2)C(=O)c2ccc(-c3cssc3=S)cc2)cc1 [Compound 29] | hCA XII (Homo sapiens, UniProt O43570) | 1148
COc1cc([N+](=O)[O-])ccc1CN(CCc1ccc(S(N)(=O)=O)cc1)C(=O)c1ccc(-c2cssc2=S)cc1 [Compound 26] | hCA XII (Homo sapiens, UniProt O43570) | 383
NS(=O)(=O)c1ccc(CCNCc2ccc(F)cc2)cc1 [Compound 5] | hCA XII (Homo sapiens, UniProt O43570) | 1.3
NS(=O)(=O)c1ccc(CCN(Cc2ccc(Br)cc2)C(=O)c2ccc(-c3cssc3=S)cc2)cc1 [Compound 22] | hCA XII (Homo sapiens, UniProt O43570) | 284
NS(=O)(=O)c1ccc(CCN(Cc2ccc(F)cc2)C(=O)c2ccc(-c3cssc3=S)cc2)cc1 [Compound 20] | hCA XII (Homo sapiens, UniProt O43570) | 9.2

Please give measured SI CA II/XII of the following entry: COc1ccc(CNCCc2ccc(S(N)(=O)=O)cc2)cc1OC [Compound 13]
1.5

Please give measured SI CA II/XII of the following entry: NS(=O)(=O)c1ccc(CCNCc2ccc([N+](=O)[O-])cc2)cc1 [Compound 10]
1.6

Please give measured SI CA II/XII of the following entry: NS(=O)(=O)c1ccc(CCNCc2csc3ccccc23)cc1 [Compound 16]
2.8

Please give measured SI CA II/XII of the following entry: N#CCCNCCc1ccc(S(N)(=O)=O)cc1 [Compound 18]
1.4

Please give measured SI CA II/XII of the following entry: NS(=O)(=O)c1ccc(CCN(Cc2ccc([N+](=O)[O-])cc2)C(=O)c2ccc(-c3cssc3=S)cc2)cc1 [Compound 25]
27.9

Please give measured SI CA II/XII of the following entry: NS(=O)(=O)c1ccc(CCNCc2ccc(Cl)cc2)cc1 [Compound 6]
1.5

Please give measured SI CA II/XII of the following entry: NS(=O)(=O)c1ccc(CCNCc2ccc(Br)cc2)cc1 [Compound 7]
2.3

Please give measured SI CA II/XII of the following entry: NS(=O)(=O)c1ccc(CCN(Cc2cccc3ccccc23)C(=O)c2ccc(-c3cssc3=S)cc2)cc1 [Compound 30]
637

Please give measured SI CA II/XII of the following entry: NS(=O)(=O)c1ccc(CCNCc2cccc3ccccc23)cc1 [Compound 15]
3.2

----------
Below: a set of entries, each annotated with reported Ki.
# study_system: hCA XII (Homo sapiens)
# method_description: Stopped-flow CO2 hydrase assay, hCA XII

# count of solved cases: 2
chemical_smiles | Ki
NS(=O)(=O)c1ccc(CCNCc2csc3ccccc23)cc1 | 69.8 nM
COc1ccc(CNCCc2ccc(S(N)(=O)=O)cc2)cc1OC | 51 nM

Please give measured Ki of the following entry: NS(=O)(=O)c1ccc(CCNCc2ccc(Cl)cc2)cc1
75.2 nM

Please give measured Ki of the following entry: NS(=O)(=O)c1ccc(CCNCc2ccc(Br)cc2)cc1
83.6 nM

Please give measured Ki of the following entry: N#Cc1ccc(CNCCc2ccc(S(N)(=O)=O)cc2)cc1
52.9 nM

Please give measured Ki of the following entry: CSc1ccc(CNCCc2ccc(S(N)(=O)=O)cc2)cc1
88.6 nM

Please give measured Ki of the following entry: COc1ccc(CNCCc2ccc(S(N)(=O)=O)cc2)cc1
57.2 nM

Please give measured Ki of the following entry: NS(=O)(=O)c1ccc(CCNCc2cccc3ccccc23)cc1
54.7 nM

----------
# System: rats
# method_description: Toxicity and Irwin test
# Type: in vivo, rat
# condition_summary: 30 mg/kg; Autonomic signes; limits 0 - 4
metric: Irwin test: Pallor
Answer with a bare number; do not write a unit.

# count of solved cases: 3
compound | study_system | value
NS(=O)(=O)c1ccc(CCN(Cc2cccc3ccccc23)C(=O)c2ccc(-c3cssc3=S)cc2)cc1 [Compound 30] | rats | 0
NS(=O)(=O)c1ccc(CCN(Cc2csc3ccccc23)C(=O)c2ccc(-c3cssc3=S)cc2)cc1 [Compound 31] | rats | 0
COc1cc([N+](=O)[O-])ccc1CN(CCc1ccc(S(N)(=O)=O)cc1)C(=O)c1ccc(-c2cssc2=S)cc1 [Compound 26] | rats | 0

Let's switch to this compound now.
Please give measured Irwin test: Pallor of the following entry: CSc1ccc(CN(CCc2ccc(S(N)(=O)=O)cc2)C(=O)c2ccc(-c3cssc3=S)cc2)cc1 [Compound 29]
0

----------
# study_system: hCA II (Homo sapiens, UniProt P00918)
# method_description: Stopped-flow CO2 hydrase assay, hCA II
Below: a set of entries, each annotated with reported pKi.
Just so you know, pKi here is -log10 of the concentration in molar units; reply with that number alone.

# count of solved cases: 5
chemical_smiles | pKi
COc1ccc(CNCCc2ccc(S(N)(=O)=O)cc2)cc1OC | 7.12
N#Cc1ccc(CNCCc2ccc(S(N)(=O)=O)cc2)cc1 | 7.15
NS(=O)(=O)c1ccc(CCNCc2ccc(Cl)cc2)cc1 | 6.94
NS(=O)(=O)c1ccc(CCNCc2ccc(Br)cc2)cc1 | 6.72
NS(=O)(=O)c1ccc(CCNCc2csc3ccccc23)cc1 | 6.70

Give pKi for NS(=O)(=O)c1ccc(CCNCc2cccc3ccccc23)cc1 tested on hCA II (Homo sapiens, UniProt P00918).
6.75
